- EXPERIMENTAL_SYSTEM: piscidin 3 (P3) (Morone chrysops x Morone saxatilis, UniProt P0C006)
- Sequence (P0C006 whole entry): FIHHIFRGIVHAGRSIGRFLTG
- ASSAY_TEXT: circular dichroism titration at […] nm, one-site two-state fit
METRIC_NAME: pKd
Recall that pKd is obtained by taking minus log10 of the concentration measured in molar.

Query "CCCCCCOC(=O)CCCCCCC/C=C\CCCCCC[C@H](C)O[C@@H]1O[C@H](CO)[C@@H](O)[C@H](O)[C@H]1O[C@@H]1O[C@H](CO)[C@@H](O)[C@H](O)[C@H]1O" yields pKd of 3.41

###

- EXPERIMENTAL_SYSTEM: piscidin 1 (P1) (Morone saxatilis, UniProt Q8UUG0)
- Sequence (Q8UUG0 23-44): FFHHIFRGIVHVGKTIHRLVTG
- ASSAY_TEXT: circular dichroism titration at […] nm, one-site two-state fit
METRIC_NAME: Kd (µM)
# output: bare number, implied unit µM

Record summary for "CCCCCCOC(=O)CCCCCCC/C=C\CCCCCC[C@H](C)O[C@@H]1O[C@H](CO)[C@@H](O)[C@H](O)[C@H]1O[C@@H]1O[C@H](CO)[C@@H](O)[C@H](O)[C@H]1O" : reported Kd = 206
